meta.source: patent US11999727B2

Reported values of IC50 for individual entries
biological target: PRMT5 (Homo sapiens); construct: purchased Viva (custom protein); test: PRMT5 biochemical IC50 assay with SAM as cofactor; conditions: PRMT5, SAM as cofactor; read-out: SAM IC50
Sequence (O14744 whole entry): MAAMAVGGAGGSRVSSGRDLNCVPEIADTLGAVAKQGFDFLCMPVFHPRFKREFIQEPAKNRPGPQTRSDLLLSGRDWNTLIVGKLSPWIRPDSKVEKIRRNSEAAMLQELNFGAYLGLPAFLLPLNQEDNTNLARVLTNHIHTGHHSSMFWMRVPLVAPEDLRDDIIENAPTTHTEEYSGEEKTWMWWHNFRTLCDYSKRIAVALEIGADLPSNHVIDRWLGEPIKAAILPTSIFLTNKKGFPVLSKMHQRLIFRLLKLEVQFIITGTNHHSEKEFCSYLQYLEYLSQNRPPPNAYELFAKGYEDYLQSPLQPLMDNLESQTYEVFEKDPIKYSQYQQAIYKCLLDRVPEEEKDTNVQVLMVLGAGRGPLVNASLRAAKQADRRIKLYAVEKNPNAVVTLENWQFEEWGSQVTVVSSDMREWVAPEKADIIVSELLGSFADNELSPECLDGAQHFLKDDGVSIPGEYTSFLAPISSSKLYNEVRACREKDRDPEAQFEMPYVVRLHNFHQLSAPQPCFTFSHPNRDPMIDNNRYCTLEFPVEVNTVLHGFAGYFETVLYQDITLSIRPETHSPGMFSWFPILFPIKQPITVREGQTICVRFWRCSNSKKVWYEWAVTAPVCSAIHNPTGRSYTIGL
Sequence (Q9BQA1 whole entry partner): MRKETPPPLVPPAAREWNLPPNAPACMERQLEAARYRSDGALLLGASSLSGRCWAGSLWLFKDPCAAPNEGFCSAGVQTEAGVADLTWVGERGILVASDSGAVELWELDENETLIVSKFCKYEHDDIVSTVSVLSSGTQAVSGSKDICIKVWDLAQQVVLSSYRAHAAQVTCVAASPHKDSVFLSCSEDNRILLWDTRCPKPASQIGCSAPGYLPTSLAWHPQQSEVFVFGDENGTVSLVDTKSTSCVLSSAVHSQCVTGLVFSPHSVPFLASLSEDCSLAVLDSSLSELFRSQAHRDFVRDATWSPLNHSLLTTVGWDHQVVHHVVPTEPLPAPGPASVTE

COMPOUND	STUDY SYSTEM	RESULT
CNC(=O)c1ccc([C@H]2CC[C@H](C)CN2C(=O)C(=O)Nc2cncc(C)c2)cc1 (racemic)	PRMT5 (Homo sapiens)	> 500 nM
COc1ncc(NC(=O)C(=O)N2C[C@@H](C)CC[C@@H]2c2ccc3sc([C@H]4CCN(C)C[C@@H]4C)nc3c2)cc1C(N)=O (racemic)	PRMT5 (Homo sapiens)	< 50 nM

Ask | // query IC50 value for entry C[C@H]1CC[C@H](C2CCC(F)(F)CC2)N(C(=O)C(=O)Nc2cncc(C(N)=O)c2)C1 (single isomer, unassigned)
Reply | 50 to 500 nM

Ask | May I ask what IC50 has been recorded for Cc1cc(NC(=O)C(=O)N2CCCC[C@@H]2c2ccc3[nH]ncc3c2)cnc1N (single isomer, unassigned) ?
Reply | > 500 nM

Ask | Name the recorded IC50 for C[C@@H]1CC[C@@H](c2cccc(C3CCC3)c2)N(C(=O)C(=O)Nc2cncc(C(N)=O)c2)C1 (racemic) .
Reply | 50 to 500 nM

Ask | Need IC50, item CCc1cc(NC(=O)C(=O)N2C[C@@H](C)CC[C@@H]2c2ccc3sc([C@H]4CCN(C)C(C)(C)C4)nc3c2)cnc1N (single isomer, unassigned) [Compound 1129]
Reply | 50 to 500 nM

* * *

Listed next: entries and their corresponding pIC50.
molecular target: PRMT5 (Homo sapiens); construct: purchased Viva (custom protein); test: PRMT5 biochemical IC50 assay with SAM as cofactor; conditions: PRMT5, SAM as cofactor; read-out: SAM IC50
pIC50: −log10 of the molar value.

COMPOUND	RESULT
Cc1cc(NC(=O)C(=O)N2CCCC[C@@H]2C2CCCCC2)cnc1N (single isomer, unassigned)	6.30 to 7.30
Cc1c(NC(=O)C(=O)N2C[C@@H](C)CC[C@@H]2c2ccccc2)cnc(N)c1C (single isomer, unassigned)	6.30 to 7.30
Cc1cc(NC(=O)C(=O)N2C[C@H](C)CC[C@H]2c2ccc3ncsc3c2)cnc1N (racemic)	6.30 to 7.30

Ask | For PRMT5 (Homo sapiens), provide pIC50 of CNC(=O)[C@@H]1CC[C@H](c2ccccc2)N(C(=O)C(=O)Nc2cnc(N)c(C)c2)C1 (racemic) please.
Reply | 6.30 to 7.30

Ask | Field: pIC50 (PRMT5 (Homo sapiens)). Entry: Cc1ccc([C@H]2CC[C@H](C)CN2C(=O)C(=O)Nc2cncc(C(N)=O)c2)cc1Cl (single isomer, unassigned)
Reply | 6.30 to 7.30

Ask | Lab request: please report pIC50 under test system PRMT5 (Homo sapiens) for Cc1cc(NC(=O)C(=O)N2C[C@@H](C)CC[C@@H]2C2CCCCC2)cnc1N (single isomer, unassigned)
Reply | < 6.30

Ask | Please provide the recorded pIC50 for CCc1cc(NC(=O)C(=O)N2C[C@@H](C)CC[C@@H]2c2ccc(F)cc2)cnc1N (racemic) , tested on PRMT5 (Homo sapiens).
Reply | 6.30 to 7.30

Ask | Request - read-out pIC50 | tested on PRMT5 (Homo sapiens) | compound CCc1cc(NC(=O)C(=O)N2C[C@@H](C)CC[C@@H]2c2ccc3sc(CC4(N(C)C)COC4)nc3c2)cnc1N
Reply | 6.30 to 7.30

Ask | Field: pIC50 (PRMT5 (Homo sapiens)). Entry: Cc1cc(NC(=O)C(=O)N2C[C@@H](C)[C@@H](OC(F)(F)F)C[C@@H]2c2ccc(F)cc2)cnc1N (single isomer, unassigned)
Reply | 6.30 to 7.30

Ask | Under PRMT5 (Homo sapiens): pIC50 value of COc1ncc(NC(=O)C(=O)N2C[C@@H](C)CC[C@@H]2c2ccc3sc(C4CN(C)C4)nc3c2)cc1C(N)=O ?
Reply | > 7.30

Ask | API: value(readout= pIC50, system= PRMT5 (Homo sapiens), query= COc1ncc(NC(=O)C(=O)N2C[C@@H](C)CC[C@@H]2c2cc(Cl)cc(Cl)c2)cc1C(N)=O (single isomer, unassigned) )
Reply | 6.30 to 7.30

Ask | Recorded pIC50 for Cc1cc(NC(=O)C(=O)N2C[C@H](C)CC[C@H]2c2ccc(NCC(F)(F)F)cc2)cnc1N (single isomer, unassigned) with PRMT5 (Homo sapiens), please?
Reply | 6.30 to 7.30

Ask | Tell me reported pIC50 for C[C@@H]1CC[C@@H](c2ccc(O)nc2)N(C(=O)C(=O)Nc2cncc(C(N)=O)c2)C1 (single isomer, unassigned) , tested with PRMT5 (Homo sapiens).
Reply | < 6.30
